System: Receptor-type tyrosine-protein kinase FLT3 (Homo sapiens), P36888 [UNDEFINED MUTATION]
Sequence (P36888 whole entry, looked up, change not shown): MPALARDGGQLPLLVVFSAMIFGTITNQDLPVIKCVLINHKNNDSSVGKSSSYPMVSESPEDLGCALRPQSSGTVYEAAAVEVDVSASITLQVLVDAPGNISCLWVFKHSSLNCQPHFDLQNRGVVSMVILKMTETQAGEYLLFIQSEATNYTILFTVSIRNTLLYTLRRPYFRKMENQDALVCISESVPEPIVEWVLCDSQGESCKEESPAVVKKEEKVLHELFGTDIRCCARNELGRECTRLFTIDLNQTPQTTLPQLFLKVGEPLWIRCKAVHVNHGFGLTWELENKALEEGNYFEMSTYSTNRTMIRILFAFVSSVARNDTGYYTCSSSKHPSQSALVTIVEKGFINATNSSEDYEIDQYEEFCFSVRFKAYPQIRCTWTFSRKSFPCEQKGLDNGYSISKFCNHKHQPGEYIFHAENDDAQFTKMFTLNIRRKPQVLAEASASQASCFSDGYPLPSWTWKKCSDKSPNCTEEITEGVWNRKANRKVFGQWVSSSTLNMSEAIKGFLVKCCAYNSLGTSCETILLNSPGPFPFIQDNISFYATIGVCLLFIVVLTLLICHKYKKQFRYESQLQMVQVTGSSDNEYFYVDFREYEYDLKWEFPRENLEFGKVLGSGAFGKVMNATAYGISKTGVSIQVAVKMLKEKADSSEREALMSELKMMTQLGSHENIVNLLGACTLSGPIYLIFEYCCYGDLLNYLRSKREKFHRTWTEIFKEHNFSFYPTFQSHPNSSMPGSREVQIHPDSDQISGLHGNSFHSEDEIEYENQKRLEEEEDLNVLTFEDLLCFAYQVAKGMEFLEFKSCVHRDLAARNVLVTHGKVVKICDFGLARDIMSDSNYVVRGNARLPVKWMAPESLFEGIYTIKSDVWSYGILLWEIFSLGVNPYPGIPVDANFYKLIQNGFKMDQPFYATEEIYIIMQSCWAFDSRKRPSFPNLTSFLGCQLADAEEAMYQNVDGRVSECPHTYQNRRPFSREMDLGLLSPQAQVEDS
measurement-parameters: MV4-11
Description: Inhibition of FLT3 ITD mutant expressed in human MV4-11 cells assessed as reduction in cell growth incubated for 72 hrs by CCK8 assay
# 1.0 = GI50 below 20 nM (exclusive); 0.0 = GI50 at/above 20 nM

Example cases with answers are listed next.
Cc1cc(-c2cn(-c3ccc(OCCN4CCOCC4)cc3)nn2)ccc1NC(=O)Nc1cc(C(C)(C)C)on1; 0.0
CC(C)(C)c1cc(NC(=O)Nc2ccc(-c3cn(-c4ccc(OCCN5CCOCC5)c([N+](=O)[O-])c4)nn3)cc2)no1; 0.0
CC(C)(C)c1cc(NC(=O)Nc2ccc(-c3cn(-c4ccc(OCCN5CCOCC5)cc4)nn3)cc2)no1; 1.0
CC(C)(C)c1cc(NC(=O)Nc2ccc(-c3cn(-c4ccc(OCCCN5CCOCC5)cc4Cl)nn3)cc2)no1; 1.0
CN(C)CCOc1ccc(-n2cc(-c3ccc(NC(=O)Nc4cc(C(C)(C)C)on4)cc3)nn2)c(Cl)c1; 1.0
CC(C)(C)c1cc(NC(=O)Nc2ccc(-c3cn(-c4ccc(OCCN5CCOCC5)cc4)nn3)c(F)c2)no1; 1.0

Now consider a different compound.
query: Field: below-cutoff. Rule: recorded GI50 strictly less than 20 nM. Subject: CC(C)(C)c1cc(NC(=O)Nc2ccc(-c3cn(-c4ccc(OCCN5CCOCC5)c(Cl)c4)nn3)cc2)no1
result: 0.0

----------
assay-text: Tmax in Sprague-Dawley rat at 25 mg/kg, po
Assay type: ADME, organism-based
measurement-parameters: in vivo
property-measured: Tmax (h)
Quick reminder: number only, in h, skip the unit.

query: Which value of Tmax has been reported for CC(C)(C)c1cc(NC(=O)Nc2ccc(-c3cn(-c4ccc(OCCN5CCOCC5)cc4Cl)nn3)cc2)no1 in the records?
result: 4

----------
System: Receptor-type tyrosine-protein kinase FLT3 (Homo sapiens), P36888 [UNDEFINED MUTATION]
measurement-parameters: BaF3
Description: Inhibition of FLT3 ITD mutant expressed in human BaF3 cells assessed as reduction in cell growth incubated for 72 hrs by CCK8 assay
Some molecules, each annotated with its measured GI50.
Please reply with the bare figure in nM and do not write the unit itself.

CC(C)(C)c1cc(NC(=O)Nc2ccc(-c3cn(-c4ccc(OCCN5CCOCC5)cc4)nn3)cc2Cl)no1; 165
CC(C)(C)c1cc(NC(=O)Nc2ccc(-c3cn(-c4ccc(OCCN5CCOCC5)cc4Br)nn3)cc2)no1; 2.3
CC(C)(C)c1cc(NC(=O)Nc2ccc(-c3cn(-c4ccc(OCCN5CCOCC5)cc4)nn3)c(Cl)c2)no1; 3

query: Quick one: GI50 for CC(C)(C)c1cc(NC(=O)Nc2ccc(-c3cn(-c4ccc(OCCN5CCOCC5)c([N+](=O)[O-])c4)nn3)cc2)no1 ?
result: 55.4

query: Further, for CC(C)(C)c1cc(NC(=O)Nc2ccc(-c3cn(-c4ccc(OCCN5CCOCC5)c(Cl)c4)nn3)cc2)no1 ?
result: 2.8

query: Same read-out for CC(C)(C)c1cc(NC(=O)Nc2ccc(-c3cn(-c4ccc(OCCCN5CCOCC5)cc4Cl)nn3)cc2)no1 ?
result: 1.5

query: Moving on to Cc1cc(-n2cc(-c3ccc(NC(=O)Nc4cc(C(C)(C)C)on4)cc3)nn2)ccc1OCCN1CCOCC1
result: 1

query: Please give the result for CC(C)(C)c1cc(NC(=O)Nc2ccc(-c3cn(-c4ccc(OCCN5CCOCC5)cc4)nn3)c(F)c2)no1 too.
result: 1.5

query: Proceed to Cc1cc(-c2cn(-c3ccc(OCCN4CCOCC4)cc3)nn2)ccc1NC(=O)Nc1cc(C(C)(C)C)on1
result: 61.5

query: Would you kindly repeat that for CC(C)(C)c1cc(NC(=O)Nc2ccc(-c3cn(-c4ccc(OCCN5CCOCC5)c(C(F)(F)F)c4)nn3)cc2)no1 ?
result: 48.5

query: What do you have for CC(C)(C)c1cc(NC(=O)Nc2ccc(-c3cn(-c4ccc(OCCN5CCOCC5)cc4)nn3)cc2F)no1 ?
result: 4.2

query: And the next one, CC(C)(C)c1cc(NC(=O)Nc2ccc(-c3cn(-c4ccc(OCCN5CCOCC5)cc4C(F)(F)F)nn3)cc2)no1 ?
result: 40.5

query: And COc1cc(-c2cn(-c3ccc(OCCN4CCOCC4)cc3)nn2)ccc1NC(=O)Nc1cc(C(C)(C)C)on1 ?
result: 851

----------
system-tested: Mast/stem cell growth factor receptor Kit (Homo sapiens, UniProt P10721)
Sequence (P10721 whole entry): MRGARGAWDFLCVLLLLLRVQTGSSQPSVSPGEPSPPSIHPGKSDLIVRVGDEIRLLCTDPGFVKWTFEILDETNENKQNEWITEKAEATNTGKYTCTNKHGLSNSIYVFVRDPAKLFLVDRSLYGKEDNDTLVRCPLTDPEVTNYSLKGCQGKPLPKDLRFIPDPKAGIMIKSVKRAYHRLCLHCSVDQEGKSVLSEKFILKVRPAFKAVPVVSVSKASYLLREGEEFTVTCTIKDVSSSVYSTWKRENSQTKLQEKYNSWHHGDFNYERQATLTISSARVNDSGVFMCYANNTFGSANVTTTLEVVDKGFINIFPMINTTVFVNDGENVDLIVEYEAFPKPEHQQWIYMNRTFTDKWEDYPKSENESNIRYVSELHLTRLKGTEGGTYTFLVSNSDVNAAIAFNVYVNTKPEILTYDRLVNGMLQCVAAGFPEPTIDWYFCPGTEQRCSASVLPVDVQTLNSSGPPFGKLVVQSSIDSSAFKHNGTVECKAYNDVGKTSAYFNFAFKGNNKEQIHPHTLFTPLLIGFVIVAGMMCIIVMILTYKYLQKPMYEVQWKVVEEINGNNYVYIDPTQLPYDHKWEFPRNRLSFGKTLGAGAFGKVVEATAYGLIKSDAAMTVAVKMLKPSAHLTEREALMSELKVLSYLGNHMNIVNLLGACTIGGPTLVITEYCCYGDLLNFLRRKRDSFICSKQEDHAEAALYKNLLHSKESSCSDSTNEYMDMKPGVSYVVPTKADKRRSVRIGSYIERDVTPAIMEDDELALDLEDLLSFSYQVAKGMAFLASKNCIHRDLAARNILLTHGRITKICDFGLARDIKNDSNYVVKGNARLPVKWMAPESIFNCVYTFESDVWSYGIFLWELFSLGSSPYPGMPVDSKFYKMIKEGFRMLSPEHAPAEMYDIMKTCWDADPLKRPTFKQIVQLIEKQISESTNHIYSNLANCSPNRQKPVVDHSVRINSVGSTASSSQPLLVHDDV
property-measured: Kd (µM)
Give the value in µM but do not write µM after it.

query: Request the reported Kd associated with CC(C)(C)c1cc(NC(=O)Nc2ccc(-c3cn(-c4ccc(OCCN5CCOCC5)cc4Cl)nn3)cc2)no1
result: 0.021

----------
system-tested: Platelet-derived growth factor receptor beta (Homo sapiens)
Sequence (P09619 whole entry): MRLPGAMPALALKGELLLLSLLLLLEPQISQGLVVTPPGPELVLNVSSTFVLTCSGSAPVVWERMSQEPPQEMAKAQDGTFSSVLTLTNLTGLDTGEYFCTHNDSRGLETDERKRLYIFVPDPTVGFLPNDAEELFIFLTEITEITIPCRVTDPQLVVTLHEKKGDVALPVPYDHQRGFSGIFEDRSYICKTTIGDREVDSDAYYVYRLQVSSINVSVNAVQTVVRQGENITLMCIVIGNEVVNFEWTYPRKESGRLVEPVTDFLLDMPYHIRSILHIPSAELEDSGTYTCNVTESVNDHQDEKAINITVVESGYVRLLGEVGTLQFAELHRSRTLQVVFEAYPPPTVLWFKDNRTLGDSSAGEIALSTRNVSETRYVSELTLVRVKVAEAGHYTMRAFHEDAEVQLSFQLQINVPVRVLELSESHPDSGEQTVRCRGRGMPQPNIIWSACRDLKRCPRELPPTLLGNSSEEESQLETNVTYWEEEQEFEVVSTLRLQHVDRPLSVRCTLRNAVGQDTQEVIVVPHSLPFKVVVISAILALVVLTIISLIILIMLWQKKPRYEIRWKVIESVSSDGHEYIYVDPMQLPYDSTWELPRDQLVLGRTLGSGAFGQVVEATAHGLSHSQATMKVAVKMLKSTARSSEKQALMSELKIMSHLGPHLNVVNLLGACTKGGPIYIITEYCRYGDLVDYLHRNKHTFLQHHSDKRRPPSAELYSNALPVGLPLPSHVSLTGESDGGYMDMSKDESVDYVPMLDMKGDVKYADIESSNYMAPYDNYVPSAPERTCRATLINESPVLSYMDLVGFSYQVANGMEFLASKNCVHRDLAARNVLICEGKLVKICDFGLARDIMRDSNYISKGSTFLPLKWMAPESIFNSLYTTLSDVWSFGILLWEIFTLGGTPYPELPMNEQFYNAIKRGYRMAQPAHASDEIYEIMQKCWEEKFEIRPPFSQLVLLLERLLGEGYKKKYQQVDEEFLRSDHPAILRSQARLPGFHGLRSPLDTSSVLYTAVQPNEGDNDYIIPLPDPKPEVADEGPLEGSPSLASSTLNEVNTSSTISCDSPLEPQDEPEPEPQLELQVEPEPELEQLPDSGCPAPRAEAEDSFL
property-measured: Kd
Report the figure along with its unit, number first.

query: Recall the recorded Kd for CC(C)(C)c1cc(NC(=O)Nc2ccc(-c3cn(-c4ccc(OCCN5CCOCC5)cc4Cl)nn3)cc2)no1 with Platelet-derived growth factor receptor beta (Homo sapiens) and state it.
result: 8.1 nM
